pKi values, listed per item
- test_system: recombinant human MC5 receptor (Homo sapiens)
- Sequence (P33032 whole entry): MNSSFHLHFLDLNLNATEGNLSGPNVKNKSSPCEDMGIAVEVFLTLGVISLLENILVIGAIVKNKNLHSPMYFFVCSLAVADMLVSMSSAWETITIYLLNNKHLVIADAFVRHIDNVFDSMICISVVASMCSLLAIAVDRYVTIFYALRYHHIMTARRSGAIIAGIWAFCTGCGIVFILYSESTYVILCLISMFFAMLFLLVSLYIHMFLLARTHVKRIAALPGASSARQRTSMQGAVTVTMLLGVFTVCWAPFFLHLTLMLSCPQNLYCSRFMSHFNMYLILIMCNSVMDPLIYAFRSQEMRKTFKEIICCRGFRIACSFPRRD
- assay_remarks: Affinity for the MC5-receptors, 125I-NDP-αMSH binding assay
- test_conditions: Sf9 or COS cells transfected with recombinant human MC5; displacement of 125I-NDP-MSH; nb = non-binding, i.e. no affinity; read-out: Affinity for MC-receptors, Ki, MC5
Lab note: report pKi as minus log10 of the concentration in molar units, number only.

stdin: Check recombinant human MC5 receptor (Homo sapiens) data and give pKi for `N=C(N)NN=Cc1ccc([N+](=O)[O-])c(Cl)c1Cl` .
stdout: 4.97

stdin: Check recombinant human MC5 receptor (Homo sapiens) data and give pKi for `N=C(N)NN=Cc1c(Br)cccc1Br` .
stdout: 4.53

stdin: Check recombinant human MC5 receptor (Homo sapiens) data and give pKi for `N=C(N)NN=Cc1cccc(Cl)c1I` .
stdout: 5.31

The reported measurements were obtained from patent US20040106682A1.
